Sourced from ChEMBL document CHEMBL6083228

tested_target: Programmed cell death 1 ligand 1 (Homo sapiens) (UniProt Q9NZQ7)
Sequence (Q9NZQ7 whole entry): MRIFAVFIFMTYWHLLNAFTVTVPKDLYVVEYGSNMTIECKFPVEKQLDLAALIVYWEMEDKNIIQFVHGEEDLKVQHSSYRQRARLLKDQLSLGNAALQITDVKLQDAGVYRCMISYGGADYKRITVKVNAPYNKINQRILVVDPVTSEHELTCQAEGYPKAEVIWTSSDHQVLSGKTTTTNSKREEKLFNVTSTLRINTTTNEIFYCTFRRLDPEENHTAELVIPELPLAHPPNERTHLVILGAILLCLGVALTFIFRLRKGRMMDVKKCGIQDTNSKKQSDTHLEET
protocol_summary: Induction of hydrophobic tag tethering degradation of PD-L1 in human NCI-H460 cells at 10 uM incubated for 24 hrs by Western blot analysis
Format: cell-based
The source made the active and inactive calls. The rule behind the calls is not given here.
result_type: Activity

compound	result_type	result
Cc1c(COc2ccc(CNCCOCCOCCOCCOCCC(=O)NC34CC5CC(CC(C5)C3)C4)cn2)cccc1-c1ccccc1	Activity	inactive
Cc1c(COc2ccc(CNCCOCCOCCC(=O)NN3CCN(C(c4ccc(F)cc4)c4ccc(F)cc4)CC3)cn2)cccc1-c1ccccc1	Activity	Active
Cc1c(COc2ccc(CNCCOCCOCCC(=O)NC34CC5CC(CC(C5)C3)C4)cn2)cccc1-c1ccccc1	Activity	inactive
Cc1c(COc2ccc(CNCCOCCOCCOCCOCCC(=O)NC(C3CCCCC3)C3CCCCC3)cn2)cccc1-c1ccccc1	Activity	inactive
Cc1c(COc2ccc(CNCCOCCOCCOCCOCCOCCC(=O)NC(C3CCCCC3)C3CCCCC3)cn2)cccc1-c1ccccc1	Activity	inactive
Cc1c(COc2ccc(CNCCOCCOCCOCCOCCOCCC(=O)NC34CC5CC(CC(C5)C3)C4)cn2)cccc1-c1ccccc1	Activity	Active
Cc1c(-c2ccccc2)cccc1-c1ccc(CNCCOCCOCCC(=O)NC(c2ccccc2)c2ccc(C(F)(F)F)cc2)cn1 (stereo not drawn)	Activity	inactive
Cc1c(-c2ccccc2)cccc1-c1ccc(CNCCOCCOCCOCCOCCC(=O)NC(c2ccc(F)cc2)c2ccc(F)cc2)cn1	Activity	inactive
